Protocol details: NCI Yeast Anticancer Drug Screen. Data for the CLN2oe strain (AID 163);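 note: 0% = growth of vehicle-only control cultures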
Cond: S. cerevisiae CLN2oe strain, at 33.0 µM, hits give high values
About 79,000 compounds went through this panel and 15% of them were active in at least one assay; those are over-represented in the sample as a whole.
Record true (1) whenever growth inhibition is at 20% or higher; record false (0) when lower.

INSERT INTO results (molecule, group_label) VALUES
  ('O=C(Oc1ccc([N+](=O)[O-])cc1)c1ccc([N+](=O)[O-])cc1', 'false (0)'),
  ('CC1(c2ccccc2)O[C@@H]2C[C@H]3[C@@H]4CCC5=CC(=O)C=C[C@]5(C)[C@@]4(F)[C@@H](O)C[C@]3(C)[C@]2(C(=O)CO)O1 (some centres not stated)', 'true (1)'),
  ('O=[N+]([O-])c1ccc(S(=O)(=O)Cc2ccccc2)c([N+](=O)[O-])c1', 'true (1)'),
  ('CC(C(=O)N1C(=O)N(C(=O)C(C)C(O)c2ccccc2)C2CCCCC21)C(O)c1ccccc1 (configuration not stated)', 'false (0)'),
  ('CC(=O)O/N=C1C=C/C(=C(/C#N)c2ccccc2)C=C/1C', 'true (1)'),
  ('O=[N+]([O-])c1ccc(C(c2c[nH]c3ccccc23)c2c[nH]c3ccccc23)cc1', 'true (1)'),
  ('O=C(O)/C=C\C(=O)Nc1ccc2c(c1)Cc1cc(Cl)ccc1-2', 'false (0)'),
  ('O=C(/N=N/C(=O)Oc1ccccc1)Oc1ccccc1', 'true (1)'),
  ('COc1ccc(C2CC(C)(N3CCCC3)Oc3cc4c(cc32)OCO4)cc1 (configuration not stated)', 'false (0)'),
  ('CCO/C=C1\SC(=S)N(c2ccc(OCC)cc2)C1=O', 'true (1)'),
  ('CC(C)OP(=O)(OC(C)C)C(=NCCO)NNc1ccc([N+](=O)[O-])cc1', 'true (1)'),
  ('N#CCCC1C(C#N)C2(Cl)CC1(Cl)C(Cl)=C2Cl (configuration not stated)', 'true (1)'),
  ('CN(C)N=Nc1ccc(N(C)C)cc1', 'false (0)'),
  ('O=C1C2=C(c3ccccc31)C(c1ccccc1)N1C(=O)CSC1=N2 (configuration not stated)', 'false (0)'),
  ('CC1(C)OC(=O)C(=Cc2ccc([N+](=O)[O-])s2)C(=O)O1', 'true (1)'),
  ('O=[N+]([O-])c1ccc(/C=C\c2ccc3c(c2)OCO3)c([N+](=O)[O-])c1', 'false (0)'),
  ('O=C1CCC(Cc2ccccc2)CN1 (configuration not stated)', 'false (0)');

Reference source for all entries: PubChem BioAssay (NCI)
